experiment: in vitro; conditions: human, 50% human plasma (pooled, sodium heparin) in PBS, pH 7.4
I'd be grateful if you could share measured remaining at 24 h, 20 µM for these entries.

Reference set (3 entries):
1. CCCCCCCCCCCCCC(=O)NCC(=O)N[C@@H](CO)C(=O)N[C@@H](CCCCN)C(=O)N[C@@H](CCCCN)C(=O)N[C@@H](CCCCN)C(=O)N[C@@H](CSSCCNC(=O)[C@H]1NC(=O)[C@H]2NC(=O)[C@H](NC(=O)[C@@H]3NC(=O)[C@H](CC(N)=O)NC(=O)[C@H](NC(=O)[C@@H](CC(C)C)NC)[C@H](O)c4ccc(c(Cl)c4)Oc4cc3cc(c4O[C@@H]3O[C@H](CO)[C@@H](O)[C@H](O)[C@H]3O[C@H]3C[C@](C)(N)[C@H](O)[C@H](C)O3)Oc3ccc(cc3Cl)[C@H]2O)c2ccc(O)c(c2)-c2c(O)cc(O)cc21)C(=O)O    18%
2. CCCCCCCCCCC(=O)N[C@@H](CCCCNC(=O)[C@H]1NC(=O)[C@H]2NC(=O)[C@H](NC(=O)[C@@H]3NC(=O)[C@H](CC(N)=O)NC(=O)[C@H](NC(=O)[C@@H](CC(C)C)NC)[C@H](O)c4ccc(c(Cl)c4)Oc4cc3cc(c4O[C@@H]3O[C@H](CO)[C@@H](O)[C@H](O)[C@H]3O[C@H]3C[C@](C)(N)[C@H](O)[C@H](C)O3)Oc3ccc(cc3Cl)[C@H]2O)c2ccc(O)c(c2)-c2c(O)cc(O)cc21)C(=O)O [Compound 20, nC10CO-K(Vancomycin)-OH]    89%
3. CCCCCCCCCCC(=O)N[C@@H](CCCCN)C(=O)N[C@@H](CCCCN)C(=O)N[C@@H](CCCCN)C(=O)N[C@@H](CCCCNC(=O)[C@H]1NC(=O)[C@H]2NC(=O)[C@H](NC(=O)[C@@H]3NC(=O)[C@H](CC(N)=O)NC(=O)[C@H](NC(=O)[C@@H](CC(C)C)NC)[C@H](O)c4ccc(c(Cl)c4)Oc4cc3cc(c4O[C@@H]3O[C@H](CO)[C@@H](O)[C@H](O)[C@H]3O[C@H]3C[C@](C)(N)[C@H](O)[C@H](C)O3)Oc3ccc(cc3Cl)[C@H]2O)c2ccc(O)c(c2)-c2c(O)cc(O)cc21)C(=O)O [Compound 18, nC10CO-KKK-K(Vancomycin)-OH]    93%

**Q:** State its remaining at 24 h, 20 µM for this compound: CN[C@H](CC(C)C)C(=O)N[C@H]1C(=O)N[C@@H](CC(N)=O)C(=O)N[C@H]2C(=O)N[C@H]3C(=O)N[C@H](C(=O)N[C@H](C(=O)O)c4cc(O)cc(O)c4-c4cc3ccc4O)[C@H](O)c3ccc(c(Cl)c3)Oc3cc2cc(c3O[C@@H]2O[C@H](CO)[C@@H](O)[C@H](O)[C@H]2O[C@H]2C[C@](C)(N)[C@H](O)[C@H](C)O2)Oc2ccc(cc2Cl)[C@H]1O
**A:** 63%
